Cited source: patent US20230391856A1

# assay_system: T1, SARS-CoV-2 spike receptor binding domain (RBD) (SARS-CoV-2, UniProt P0DTC2 319-541)
# T1 construct: also called SARS-CoV RBD
# assay_protocol: RBD/ACE2 competition; RBD binding to ACE2 on HEK-293 cells
Listed here are binders together with their documented ACE2 binding [% inhibition].
readout_kind: ACE2 binding [% inhibition] (%)

* SARS2-1C12_f3 (antibody, V domains shown, also called antibody number 1) VH: QVQLVQSGAEVKKPGASVKVSCKASGYTFTSYDITWVRQATGQGLEWMGWMSPNSGNTGYTQKFQGRVTMTRNTSISTAYMELSSLRSEDTAVYYCARFGYGSGALDYYYYGLDVWGQGTTVTVSS VL: EIVLTQSPGTLSLSPGERATLSCRASQSVRSSHLAWYQQKPGQAPRLLIYGASSRATGIPDRFSGSGSGTDFTLTISRLEPEDFAVYYCQQYNNSPITFGQGTRLEIK | 88
* SARS2-9C6_f3 (antibody, V domains shown, also called antibody number 10) VH: QVQLVQSGAEVKKPGASVKVSCKASGYTFTSYDITWVRQATGQGLEWMGWMSPKSGNTGYAQKFQGRVTMTRNTSISTAYMELSSLRSEDTAVYYCARFGYGSGALDYYYYGLDVWGQGTTVTVSS VL: EIVLTQSPGTLSLSPGERATLSCRASQSVRSSHLAWYRQKPGQAPRLLIYGASSRATGIPDRFSGRGSGTDFTLTISRLEPEDFAVYYCQQYNSSPITFGQGTRLEIK | 85
* SARS2-8H4_f3 (antibody, V domains shown, also called antibody number 9) VH: QVQLVQSGAEVKKPGASVKVSCKASGYTFTSYDITWVRQATGQGLEWMGWMSPNSGNTGYAQKFQGRVTMTRNTSISTAYMELSSLRSEDTAVYYCARFGYGSGALDYYYYGLDVWGQGTTVTVSS VL: EIVLTQSPGTLSLSPGERATLSCRASQSVRSSHLAWYQQKPGQAPRLLIYGASSRATGIPDRFSGSGSGTDFTLTISRLEPEDFAVYYCQQFGSSPITFGQGTRLEIK | 93
* SARS2-17F2_f3 (antibody, V domains shown, also called antibody number 18) VH: QVQLVQSGAEVKRPGASVKVSCKASGYTFTSYDITWVRQATGQGLEWMGWMSPDSGNTGYAQRFQGRVTMTRNTSISTAYMELSSLRSEDTAVYYCARFGYGSGALDYYYYGLDVWGQGTTVTVSS VL: EIVLTQSPGTLSLSPGERATLSCRASQSVRSSHLAWYQQKPGQAPRLLIYGASSRATGIPDRFSGSGSGTDFTLTISRLEPEDFAVYYCQQYNSSPITFGQGTRLEIK | 65
